Listing of entries alongside the reported koff.
Target: T1, recombinant human CEACAM-1/CD66a protein (R&D systems; Cat. No. 2244-CM) (human, UniProt P13688 35-428)
T1 construct: Bought protein; captured on anti-His (His1K) biosensors in the Octet assay, so it carries a His tag; also called HCCM1; recombinant CEACAM-1/CD66a protein
T1 sequence (looked up): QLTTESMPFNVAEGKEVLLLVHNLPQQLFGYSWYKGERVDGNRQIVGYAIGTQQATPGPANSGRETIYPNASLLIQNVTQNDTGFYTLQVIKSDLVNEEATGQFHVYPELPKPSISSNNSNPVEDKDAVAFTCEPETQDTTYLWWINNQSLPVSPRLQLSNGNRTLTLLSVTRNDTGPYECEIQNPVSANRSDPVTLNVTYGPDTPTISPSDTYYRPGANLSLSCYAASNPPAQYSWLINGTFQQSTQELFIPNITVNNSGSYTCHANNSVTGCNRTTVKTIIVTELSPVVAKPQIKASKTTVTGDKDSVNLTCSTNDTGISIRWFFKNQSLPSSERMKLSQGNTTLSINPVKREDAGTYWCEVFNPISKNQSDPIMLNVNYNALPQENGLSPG
Assay: Octet QKe biolayer interferometry, anti-His (HIS1K) biosensors, antibody 6.25-400 nM
Answer with a number only, understood to be in s⁻¹.

Recorded results for 2 binders are shown here.
binder	koff (s⁻¹)
4R9_H4-n20HC+4R26LC (antibody, human IgG4 S228P, lambda, V domains shown) VH: EVQLLESGGGLVQPGGSLRLSCAASGFNFSNYAMSWVRQAPGKGLEWVSVISHGGGSIYYADSVKGRLTISRDNSKNTLYLQMNSLRAEDTAVYYCARDPTKGYAPTFDYWGQGTLVTVSS VL: QSVLTQPPSASGTPGQRVTISCSGSSSNIGNNYVSWYQQLPGTAPKLLIYADSKRLSGVPDRFSGSKSGTSASLAISGLRSEDEADYYCGAWDGRLNGYVFGGGTKLTVLG	0.000321
4R9_H2-2 (antibody, human IgG4 S228P, lambda, V domains shown, also called C25-derived clone 4R9_H2-2) VH: EVQLLESGGGLVQPGGSLRLSCAASGFTFSNYAMSWVRQAPGKGLEWVSVISHGGGSIYYADSVKGRLTISRDNSKNTLYLQMNSLRAEDTAVYYCARDPTKGYAPLFDYWGQGTLVTVSS VL: QSVLTQPPSASGTPGQRVTISCSGSSSNIGNNYVSWYQQLPGTAPKLLIYADSRRPSGVPDRFSGSKSGTSASLAISGLRSEDEADYYCGAWDLSLNGYVFGGGTKLTVLG	0.000627

Now examine the next entry.
Please give the documented koff of 4R9 (antibody, human IgG4 S228P, lambda, V domains shown, also called C25-derived clone 4R9) VH: EVQLLESGGGLVQPGGSLRLSCAASGFTFSNYAMSWVRQAPGKGLEWVSVISHGGGSIYYADSVKGRLTISRDNSKNTLYLQMNSLRAEDTAVYYCARDPTKGYAPTFDYWGQGTLVTVSS VL: QSVLTQPPSASGTPGQRVTISCSGSSSNIGNNYVSWYQQLPGTAPKLLIYADSRRPSGVPDRFSGSKSGTSASLAISGLRSEDEADYYCGAWDLSLNGYVFGGGTKLTVLG 0.000567
